These data points were gathered from patent US4216226A.

assay-details: in vitro
protocol-conditions: human, hela s3 cells
Counter-ions that a name gives are not always drawn.
metric-name: MCC (µg/mL)
Write the number in µg/mL without appending the unit.

# example entries with known answers
NC(Cc1ccc(F)cc1)C(=O)O (racemic) [DL-p-fluoro-phenyl alanine, reference compound] ... 125
Cl.NC12CC3CC(CC(C3)C1)C2 [1-Adamantanamine hydrochloride, reference compound] ... 250
COC(=O)[C@@H](N)Cc1ccc(O)cn1 [hydrochloride] ... 1000
NC(CCP(=O)(O)O)C(=O)O (racemic) ... 250
O=C1O[C@H]([C@@H](O)CO)C(O)=C1O [L-Ascorbic acid, reference compound] ... 125

Now let's try a different one.
Reported MCC, compound `N[C@@H](Cc1ccc(O)cn1)C(=O)O` : ____
500
